# ASSAY SYSTEM: Cbl-b (Homo sapiens (Human), UniProt Q13191)
# Sequence (Q13191 40-426): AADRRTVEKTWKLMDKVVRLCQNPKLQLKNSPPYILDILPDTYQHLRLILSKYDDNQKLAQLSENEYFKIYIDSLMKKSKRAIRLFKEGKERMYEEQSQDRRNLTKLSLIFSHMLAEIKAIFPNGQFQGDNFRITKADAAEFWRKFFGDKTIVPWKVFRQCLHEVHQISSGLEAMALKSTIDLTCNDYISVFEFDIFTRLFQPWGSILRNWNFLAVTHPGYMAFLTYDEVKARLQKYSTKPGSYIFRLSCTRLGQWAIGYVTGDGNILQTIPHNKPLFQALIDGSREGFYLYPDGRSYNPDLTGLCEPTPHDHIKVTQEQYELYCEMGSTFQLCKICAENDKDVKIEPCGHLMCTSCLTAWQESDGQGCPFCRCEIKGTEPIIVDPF
# ASSAY SUMMARY: Cbl-b LCK Ub TR-FRET assay (Cbl-b Lck HTRF)
# Format: biochemical
pIC50: −log10 of the molar value. Where a name gives a salt, the structure may show the parent alone.
ASSAY ENDPOINT: pIC50

compound="CC(C)[C@@H]1CN(Cc2cc3c(c(C(F)(F)F)c2)CN(c2cccc(C4([C@@H](F)c5nncn5C)COC4)c2)C3=O)CCN1 [Compound 92]" assay_endpoint=pIC50 endpoint_value=7.70
compound="Cn1cnnc1CC1(c2cc(Cl)nc(N3Cc4c(cc(CNC5(C)CCC5)cc4C(F)(F)F)C3=O)c2)CCC1 [Compound 351, formate]" assay_endpoint=pIC50 endpoint_value=7.48
compound="C[C@@H](c1cc2c(c(C(F)(F)F)c1)CN(c1cccc(C3([C@@H](F)c4nncn4C)COC3)c1)C2=O)N1CC(C)(F)C1 [Compound 108]" assay_endpoint=pIC50 endpoint_value=7.08

---

# ASSAY SYSTEM: UniProtKB Q13191
# ASSAY SUMMARY: Cbl-b LCK Ub TR-FRET assay (Cbl-b Lck HTRF)
# Format: biochemical
# Protocol: Compounds were 3-fold serially diluted in DMSO in a 384-well polypropylene plate (#P-05525-BC; Labcyte) to generate a source plate with 10 concentrations of each compound, top concentration=2 mM. […] Plates were read for TR-FRET using an Envision at excitation 340 nm, emission at 615 and 665 nm, 4 flashes per well. […] Cbl-b Lck HTRF data in Table 7 is measured according to Example 76 herein; C-cbl Lck HTRF data is measured according to Example 76 herein.
pIC50: −log10 of the molar value.
Listing of recorded pIC50 by entry.
ASSAY ENDPOINT: pIC50

compound=Cn1cnnc1CC1(c2cc(-c3ccccc3)nc(N3Cc4c(cc(CNC5(C)CCC5)cc4C(F)(F)F)C3=O)c2)CCC1 endpoint_value=7.92
compound="Cl.Cn1cnnc1CC1(c2cc(NCc3ccncc3)nc(N3Cc4c(cc(CNC5(C)CCC5)cc4C(F)(F)F)C3=O)c2)CCC1 [Compound 380, hydrochloride]" endpoint_value=7.05
compound=Cn1cnnc1CC1(c2cc(OC3CCCC3)nc(N3Cc4c(cccc4C(F)(F)F)C3=O)c2)COC1 endpoint_value=5.96
compound=C[C@@H](c1cc2c(c(C(F)(F)F)c1)CN(c1cccc(C3([C@H](F)c4nncn4C)COC3)c1)C2=O)N1CC(C)(F)C1 endpoint_value=6.49
compound=Cn1cnnc1[C@H](F)C1(c2cccc(N3Cc4c(cc(CN5CC(C)(CCl)C5)cc4C(F)(F)F)C3=O)c2)COC1 endpoint_value=7.82
compound=CC(C)[C@H]1CNCCN1Cc1cc2c(c(C(F)(F)F)c1)CN(c1cccc(C3([C@H](F)c4nncn4C)CCC3)c1)C2=O endpoint_value=7.77
compound=Cn1cnnc1[C@H](F)C1(c2cccc(N3Cc4c(cc(CN5CC(CCO)C5)cc4C(F)(F)F)C3=O)c2)COC1 endpoint_value=7.39

---

# ASSAY SYSTEM: c-Cbl (Homo sapiens (Human), UniProt P22681)
# Sequence (P22681 47-435): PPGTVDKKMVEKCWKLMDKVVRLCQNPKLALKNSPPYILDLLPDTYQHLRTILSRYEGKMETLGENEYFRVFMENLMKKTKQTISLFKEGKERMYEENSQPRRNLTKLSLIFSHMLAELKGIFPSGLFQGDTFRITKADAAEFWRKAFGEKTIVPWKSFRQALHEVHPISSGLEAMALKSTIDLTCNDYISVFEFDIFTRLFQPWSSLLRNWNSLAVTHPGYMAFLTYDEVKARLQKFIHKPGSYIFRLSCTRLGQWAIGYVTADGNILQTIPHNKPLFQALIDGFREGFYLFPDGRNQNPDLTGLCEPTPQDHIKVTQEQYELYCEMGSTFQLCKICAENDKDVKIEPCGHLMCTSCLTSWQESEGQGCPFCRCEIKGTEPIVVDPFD
# ASSAY SUMMARY: C-Cbl LCK Ub TR-FRET assay (c-cbl Lck HTRF)
# Type: biochemical
# REPORTED CONDITIONS: C-cbl Lck HTRF IC50 relative to Cbl-b Lck HTRF IC50
ASSAY ENDPOINT: (fold-selectivity)

compound="Cn1cnnc1CC1(c2cc(NC3C4CCC3C4)nc(N3Cc4c(cccc4C(F)(F)F)C3=O)c2)COC1 (stereo not shown)" assay_endpoint=(fold-selectivity) endpoint_value=(24x)

---

Listing of recorded IC50 by entry.
# ASSAY SYSTEM: c-Cbl (Homo sapiens (Human))
# ASSAY SUMMARY: C-Cbl LCK Ub TR-FRET assay (c-cbl Lck HTRF)
# Type: biochemical
# Procedure: 6 μL of detection mixture was added to all wells and briefly centrifuged before incubating for 20 min at room temperature. […] IC50 was generated using no LCK as the low control and DMSO as the high control.
ASSAY ENDPOINT: IC50 (nM)

structure_smiles_string=Cn1cnnc1[C@H](F)C1(c2cccc(N3Cc4c(cc(CN5CC(C)(O)C5)cc4C(F)(F)F)C3=O)c2)CC(F)(F)C1 assay_endpoint=IC50 endpoint_value=150
structure_smiles_string=CC(C)N(C)Cc1cc2c(c(C(F)(F)F)c1)CN(c1cccc(C3(Cc4nncn4C)CC(F)(F)C3)c1)C2=O assay_endpoint=IC50 endpoint_value=110
structure_smiles_string=Cn1cnnc1[C@H](F)C1(c2cccc(N3Cc4c(cc(CN5CCC[C@@H](CO)C5)cc4C(F)(F)F)C3=O)c2)COC1 assay_endpoint=IC50 endpoint_value=85

---

# ASSAY SYSTEM: c-Cbl (Homo sapiens (Human), UniProt P22681)
# ASSAY SUMMARY: C-Cbl LCK Ub TR-FRET assay (c-cbl Lck HTRF)
# Format: biochemical
# REPORTED CONDITIONS: C-cbl Lck HTRF IC50 relative to Cbl-b Lck HTRF IC50
ASSAY ENDPOINT: (fold-selectivity)

molecule="Cn1cnnc1CC1(c2cc(NCCN3CCCC3=O)nc(N3Cc4c(cc(CNC5(C)CCC5)cc4C(F)(F)F)C3=O)c2)CCC1 [Compound 338]" assay_endpoint=(fold-selectivity) endpoint_value=(1.1x)
molecule="CC(C)[C@@H]1CN(Cc2cc3c(c(C(F)(F)F)c2)CN(c2cccc(C4([C@@H](F)c5nncn5C)COC4)c2)C3=O)CCN1C [Compound 406]" assay_endpoint=(fold-selectivity) endpoint_value=(1.1x)

---

# ASSAY SYSTEM: UniProt P22681
# ASSAY SUMMARY: C-Cbl LCK Ub TR-FRET assay (c-cbl Lck HTRF)
# Type: biochemical
Listing of recorded IC50 by entry.
ASSAY ENDPOINT: IC50

structure_smiles_string=Cn1cnnc1CC1(c2cc(NCCc3c[nH]c4ccccc34)nc(N3Cc4c(cc(CNC5(C)CCC5)cc4C(F)(F)F)C3=O)c2)CCC1 assay_system="UniProt P22681" endpoint_value="20 nM"
structure_smiles_string=Cn1cnnc1[C@H](F)C1(c2cccc(N3Cc4c(cc(CN5CC[C@H](F)C5)cc4C(F)(F)F)C3=O)c2)COC1 assay_system="UniProt P22681" endpoint_value="68 nM"
structure_smiles_string=CN(CCC(C)(C)O)Cc1cc2c(c(C(F)(F)F)c1)CN(c1cccc(C3([C@@H](F)c4nncn4C)COC3)c1)C2=O assay_system="UniProt P22681" endpoint_value="110 nM"
structure_smiles_string=Cn1cnnc1CC1(c2cc(OC3CCCC3)nc(N3Cc4c(cc(CNC5(C)CCC5)cc4C(F)(F)F)C3=O)c2)COC1 assay_system="UniProt P22681" endpoint_value="16 nM"
structure_smiles_string=Cn1cnnc1CC1(c2cccc(N3Cc4c(cc(CN5CCN[C@H](C6CC6)C5)cc4C(F)(F)F)C3=O)c2)CC(F)(F)C1 assay_system="UniProt P22681" endpoint_value="35 nM"
structure_smiles_string=Cn1cnnc1CC1(c2cc(NCC(N)=O)nc(N3Cc4c(cccc4C(F)(F)F)C3=O)c2)COC1 assay_system="UniProt P22681" endpoint_value="20000 nM"
structure_smiles_string=CC(C)[C@H]1CN(C)CCN1Cc1cc2c(c(C(F)(F)F)c1)CN(c1cccc(C3([C@@H](F)c4nncn4C)COC3)c1)C2=O assay_system="UniProt P22681" endpoint_value="13 nM"

---

# ASSAY SYSTEM: c-Cbl (Homo sapiens (Human))
# ASSAY SUMMARY: C-Cbl LCK Ub TR-FRET assay (c-cbl Lck HTRF)
# Assay type: biochemical
# REPORTED CONDITIONS: C-cbl Lck HTRF IC50 relative to Cbl-b Lck HTRF IC50
# Experimental: 6 μL of detection mixture was added to all wells and briefly centrifuged before incubating for 20 min at room temperature. […] IC50 was generated using no LCK as the low control and DMSO as the high control.
ASSAY ENDPOINT: (fold-selectivity)

compound=COC[C@@H]1CCCN1Cc1cc2c(c(C(F)(F)F)c1)CN(c1cccc(C3([C@H](F)c4nncn4C)COC3)c1)C2=O endpoint_value=1.7x
compound=CC(C)[C@H]1CN(C)CCN1Cc1cc2c(c(C(F)(F)F)c1)CN(c1cc(C3(Cc4nncn4C)COC3)cc(OC3CCCC3)n1)C2=O endpoint_value=(1.4x)
compound="Cc1cnnn1CC1(c2cccc(N3Cc4c(cc(CN5CCN(C)C[C@@H]5C(C)C)cc4C(F)(F)F)C3=O)c2)COC1 [Compound 258]" endpoint_value=(1.4x)
compound="CC(C)[C@@H]1CN(Cc2cc3c(c(C(F)(F)F)c2)CN(c2cccc(C4([C@@H](F)c5nncn5C)COC4)c2)C3=O)CCN1C [Compound 218]" endpoint_value=1.3x

Reference source for all entries: patent US20250230147A1
